inhibition of growth at 50 µg/mL for assorted compounds
System: Botrytis cinerea
Procedure details: microbe, parasite or virus in culture
Assay type: cell-based
Test settings: Botrytis cinerea, 24 h; 50µg/mL; read-out: Aktivität gegenüber B. cinerea

Find the measured inhibition of growth at 50 µg/mL: item Cc1cc([Se]c2cc(C)c(O)c(C)c2)cc(C)c1O [Verbindung 19, Bis(3,5-dimethyl-4-hydroxyphenyl)selen] , target or system Botrytis cinerea.
0 to 25%

Lookup `Oc1c(Cl)cc(F)cc1[Se]c1cc(F)cc(Cl)c1O`
> 75%

Lookup `Cc1cc(Cl)cc([Se]c2cc(Cl)cc(C)c2O)c1O`
> 75%

Lookup `COc1cc(C)cc([Se]c2cc(C)cc(OC)c2O)c1O`
0 to 25%

Lookup `CCc1cc([Se]c2cc(CC)cc(C(C)(C)C)c2O)c(O)c(C(C)(C)C)c1`
0 to 25%

Lookup `Cc1cc(C(C)C)c(O)c([Se]c2c(C)c(C)cc(C(C)C)c2O)c1C`
0 to 25%
